Biological target: Cytochrome P450 1A2 (Homo sapiens) (UniProt P05177)
Sequence (P05177 whole entry, looked up): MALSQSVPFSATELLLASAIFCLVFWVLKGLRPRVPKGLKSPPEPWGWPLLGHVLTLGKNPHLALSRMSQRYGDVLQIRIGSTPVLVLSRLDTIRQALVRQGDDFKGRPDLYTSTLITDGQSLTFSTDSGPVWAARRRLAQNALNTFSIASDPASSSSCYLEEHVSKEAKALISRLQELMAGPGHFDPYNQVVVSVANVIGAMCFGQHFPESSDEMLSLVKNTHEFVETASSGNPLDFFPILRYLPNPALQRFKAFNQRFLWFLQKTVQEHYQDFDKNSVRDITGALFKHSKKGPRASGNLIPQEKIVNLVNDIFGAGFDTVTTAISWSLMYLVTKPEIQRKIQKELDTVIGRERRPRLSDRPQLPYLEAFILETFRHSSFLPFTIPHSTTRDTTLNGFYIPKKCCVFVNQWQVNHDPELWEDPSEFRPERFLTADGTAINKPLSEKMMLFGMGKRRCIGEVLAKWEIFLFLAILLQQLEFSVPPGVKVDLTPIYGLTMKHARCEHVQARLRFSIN
Test: Cytochrome panel assay with activity outcomes
Settings: recombinant CYP, pro-luciferin dealkylation, luminescence, p450-cyp1a2; series mostly up to 57.1 µM
Screen size: about 16,000 compounds; about 5,700 (36%) were called active. About 24% were inconclusive and are not listed. The list shows a part of the results.
test.readout: AC50

INSERT INTO results (molecule, result) VALUES
  ('c1ccc(C(c2ccccc2)N2CC[C@@]3(CCCNC3)C2)cc1', 'inactive'),
  ('c1ccc(-c2ccc(N3CCCC4(CCNCC4)C3)cc2)cc1', '10 µM (active)'),
  ('O=C(c1csnn1)N1CCC2(CCCN(c3ccc(-c4ccccc4)cc3)C2)CC1', 'inactive'),
  ('CN(C)CCNC(=O)Cn1nc(-c2ccc(Cl)cc2)ccc1=O', 'inactive'),
  ('Cn1c(=O)c(-c2ccccc2)nc2cnc(Oc3ccccc3)nc21', '2 µM (active)');

Given item O=C(Cn1ccnc1[N+](=O)[O-])NCCO , the value recorded as its AC50 is inactive

Given item Cc1noc(C)c1-c1cc(NCc2cccs2)ncn1 , the value recorded as its AC50 is 0.794 µM (active)

Given item c1ccc(-c2ccc(N3CC[C@@]4(CCCNC4)C3)cc2)cc1 , the value recorded as its AC50 is 12.6 µM (active)

Given item COc1ccc2c(=O)cc(-c3ccncc3)oc2c1OC , the value recorded as its AC50 is 1.58 µM (active)

Given item O=C(c1ccc(COc2ccc(F)cc2)o1)n1cccn1 , the value recorded as its AC50 is 10 µM (active)

Given item Cc1ccc(C(c2nnnn2C2CCCC2)N2CCN3CCCC3C2)cc1 (stereo not drawn) , the value recorded as its AC50 is inactive

Given item CCOC(=O)c1nnn(-c2nonc2N)c1-c1ccc(C)cc1 , the value recorded as its AC50 is 0.891 µM (active)

---

Molecular target: Cytochrome P450 1A2 (Homo sapiens)
Assay: Cytochrome panel assay with activity outcomes
Conditions: recombinant CYP, pro-luciferin dealkylation, luminescence, p450-cyp1a2; series mostly up to 57.1 µM
Protocol: The P450 gene superfamily is involved in the metabolism and clearance of xenobiotics. This assay used various human CYP P450 isozymes to measure the dealkylation of various pro-luciferin substrates to luciferin. The luciferin is then measured by luminescence after the addition of a luciferase detection reagent. […] Inhibitors and some substrates limit the production of luciferin, and decrease measured luminescence. […] 8, Detection, 1 sec, ViewLux luminescent read […]
Screen size: about 16,000 compounds; about 5,700 (36%) were called active. Not shown: some 24% with an inconclusive outcome. The call rests on the fitted dose curve; in most records, active means well fitted curve in the direction sought with a large enough effect; inconclusive means small, poorly fitted or top-dose-only effect, or effect the other way; inactive means no such curve, though single readings can be large or run the other way. The list shows a part of the results.
Hi! Could you answer with just one of these? 1.0 = active, 0.0 = inactive

Consider the worked cases shown below.
INSERT INTO results (compound, category) VALUES
  ('CCc1nnc(NC(=O)c2c(C)nn(-c3ccccc3)c2Cl)s1', 1.0),
  ('Cc1cccc(CN2CCN(CC(=O)O)C2=O)c1', 0.0);

GET /call?item= O=C(O)CN1CCN(Cc2ccccc2)C1=O returns the recorded outcome of this test. 0.0

GET /call?item= C#C[C@@]1(O)CC[C@@H]2[C@@H]3CCC4=CC(=O)CC[C@@H]4[C@H]3CC[C@]21C returns the recorded outcome of this test. 0.0

GET /call?item= O=C(O)CN1CCN(Cc2ccc(F)cc2Cl)C1=O returns the recorded outcome of this test. 1.0

Source listed as PubChem BioAssay AID1851.
